# Lookup of reported IC50 keyed by entry
targetOrTestSystem: human recombinant ALR1 (Homo sapiens, UniProt P14550)
Sequence (P14550 1-325): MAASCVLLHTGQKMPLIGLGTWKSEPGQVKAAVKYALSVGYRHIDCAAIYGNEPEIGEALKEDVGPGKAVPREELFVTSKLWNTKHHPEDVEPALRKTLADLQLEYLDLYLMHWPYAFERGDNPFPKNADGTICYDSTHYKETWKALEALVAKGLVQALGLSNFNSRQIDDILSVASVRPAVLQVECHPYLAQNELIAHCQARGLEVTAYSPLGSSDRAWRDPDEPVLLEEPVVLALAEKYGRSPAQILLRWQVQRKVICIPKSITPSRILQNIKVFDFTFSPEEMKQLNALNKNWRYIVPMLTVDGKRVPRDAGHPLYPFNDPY
experimentNotes: ALR1 enzyme inhibition assay (NADPH oxidation, sodium D-gluconate substrate)
conditionSummary: n = 3

// known answers, use as guide
# compound, endpointName, value
measured = [
    ("CC(C)(C)c1ccc(C=Cc2cc(=O)c(O)cn2CC(=O)O)cc1", "IC50", "> 100 µM"),
    ("O=C(O)Cn1cc(O)c(=O)cc1C=Cc1ccc(F)c(F)c1", "IC50", "> 100 µM"),
    ("O=C(O)Cn1cc(O)c(=O)cc1C=Cc1ccccc1", "IC50", "> 100 µM"),
]

Query :: If you can, please state the reported IC50 value of CC(/C=C1\SC(=S)N(CC(=O)O)C1=O)=C\c1ccccc1 [epalrestat, reference compound] .
Result :: 3.56 µM

Query :: Would you mind telling me what IC50 value was observed for "O=C(O)Cn1cc(O)c(=O)cc1C=Cc1ccc(O)cc1" ?
Result :: 15 µM

Query :: What measured IC50 goes with "O=C(O)Cn1cc(O)c(=O)cc1C=Cc1ccc(O)c(O)c1" ?
Result :: 19.9 µM
